TEST NAME: PK in tumor-bearing nude mice after i.v. C118P
Assay type: in vivo, nude mice (BALB/cA) implanted with NCI-H460 tumor
CONDITION SET: BALB/cA nude, mouse, iv; nude mice, tumor, i.v. C118P 75 mg/kg, n = 4
ASSAY READOUT: half-life

**Q:** Value lookup for half-life; key = COc1cc(OC)cc(-c2nc[nH]c2-c2ccc(OC)c(O)c2)c1 [C118]
**A:** 3.7 h

###

TEST NAME: Plasma protein binding by ultrafiltration
Assay type: in vitro ADME, Sprague-Dawley rats
CONDITION SET: Sprague-Dawley, pooled plasma; rat plasma, C118 200 ng/mL; read-out: fu (fraction unbound)
ASSAY READOUT: fraction unbound at 1 h, 200 ng/mL
Just the number, please.

**Q:** Value lookup for fraction unbound at 1 h, 200 ng/mL; key = COc1cc(OC)cc(-c2nc[nH]c2-c2ccc(OC)c(O)c2)c1
**A:** 0.077

###

TEST NAME: PK in rats after i.v. C118P
Assay type: in vivo, SD rats
CONDITION SET: both sexes, SD, rat, iv; rats, plasma, i.v. C118P 5 mg/kg, n = 6
ASSAY READOUT: half-life (min)
Give the quantity in min, number only.

**Q:** Value lookup for half-life; key = COc1cc(OC)cc(-c2nc[nH]c2-c2ccc(OC)c(O)c2)c1 [C118]
**A:** 31.2

###

TEST NAME: Plasma protein binding by ultrafiltration
Type: in vitro ADME, beagle dogs
CONDITION SET: beagle; dog plasma, C118P 400 ng/mL; read-out: fu (fraction unbound)
ASSAY READOUT: fraction unbound at 1 h, 400 ng/mL
Just the number, please.

**Q:** Value lookup for fraction unbound at 1 h, 400 ng/mL; key = COc1cc(OC)cc(-c2nc[nH]c2-c2ccc(OC)c(OP(=O)([O-])[O-])c2)c1.[Na+].[Na+] [C118P]
**A:** 0.019

###

TEST NAME: PK in rats after i.v. C118P
Assay type: in vivo, SD rats
CONDITION SET: both sexes, SD, rat, iv; rats, plasma, i.v. C118P 50 mg/kg, n = 6
ASSAY READOUT: AUC(0-inf)

**Q:** Value lookup for AUC(0-inf); key = COc1cc(OC)cc(-c2nc[nH]c2-c2ccc(OC)c(O)c2)c1
**A:** 9720 ng·h/mL

###

TEST NAME: Plasma protein binding by ultrafiltration
Type: in vitro ADME
CONDITION SET: human plasma, C118P 40,000 ng/mL; read-out: fu (fraction unbound)
ASSAY READOUT: fraction unbound at 1 h, 40000 ng/mL
Just the number, please.

**Q:** Value lookup for fraction unbound at 1 h, 40000 ng/mL; key = COc1cc(OC)cc(-c2nc[nH]c2-c2ccc(OC)c(OP(=O)([O-])[O-])c2)c1.[Na+].[Na+] [C118P]
**A:** 0.022

###

TEST NAME: PK in dogs after i.v. C118P
Type: in vivo, beagle dogs
CONDITION SET: both sexes, beagle, dog, intravenous; dogs, plasma, i.v. C118P 6 mg/kg, n = 6; read-out: C2min
Procedure: The beagle dogs were purchased from Nanjing Ya Dong experimental animal research center. Twelve beagle dogs with half males and half females were divided randomly into two groups. C118P was dissolved in saline to different concentrations for intravenous administration. […] Plasma was prepared by centrifugation at 8000 rpm for 5 min, and the plasma samples were then prepared and determined by the method described above. […]
ASSAY READOUT: concentration at 2 min (ng/mL)
Give the quantity in ng/mL, number only.

**Q:** Value lookup for concentration at 2 min; key = COc1cc(OC)cc(-c2nc[nH]c2-c2ccc(OC)c(O)c2)c1
**A:** 1700

###

TEST NAME: Plasma protein binding by ultrafiltration
Type: in vitro ADME, beagle dogs
CONDITION SET: beagle, pooled plasma; dog plasma, C118 200 ng/mL; read-out: fu (fraction unbound)
ASSAY READOUT: fraction unbound at 1 h, 200 ng/mL
Just the number, please.

**Q:** Value lookup for fraction unbound at 1 h, 200 ng/mL; key = COc1cc(OC)cc(-c2nc[nH]c2-c2ccc(OC)c(O)c2)c1
**A:** 0.058

###

TEST NAME: Metabolic stability in liver microsomes
Assay type: in vitro ADME, rat
CONDITION SET: Sprague-Dawley; rat liver microsomes, 1.0 mg protein/mL, C118 disappearance
ASSAY READOUT: half-life (min)
Give the quantity in min, number only.

**Q:** Value lookup for half-life; key = COc1cc(OC)cc(-c2nc[nH]c2-c2ccc(OC)c(O)c2)c1
**A:** 10.3

###

TEST NAME: Plasma protein binding by ultrafiltration
Type: in vitro ADME, Sprague-Dawley rats
CONDITION SET: Sprague-Dawley; rat plasma, C118P 400,000 ng/mL; read-out: fu (fraction unbound)
ASSAY READOUT: fraction unbound at 1 h, 400000 ng/mL
Just the number, please.

**Q:** Value lookup for fraction unbound at 1 h, 400000 ng/mL; key = COc1cc(OC)cc(-c2nc[nH]c2-c2ccc(OC)c(OP(=O)([O-])[O-])c2)c1.[Na+].[Na+] [C118P]
**A:** 0.122

###

TEST NAME: PK in dogs after i.v. C118P
Format: in vivo, beagle dogs
CONDITION SET: both sexes, beagle, dog, in vivo; dogs, plasma, i.v. C118P 3 mg/kg, n = 6; read-out: C2min
ASSAY READOUT: concentration at 2 min (ng/mL)
Give the quantity in ng/mL, number only.

**Q:** Value lookup for concentration at 2 min; key = COc1cc(OC)cc(-c2nc[nH]c2-c2ccc(OC)c(OP(=O)([O-])[O-])c2)c1.[Na+].[Na+] [C118P]
**A:** 34700

###

TEST NAME: PK in rats after i.v. C118P
Type: in vivo, SD rats
CONDITION SET: both sexes, Sprague-Dawley, rat, in vivo, iv; rats, plasma, i.v. C118P 10 mg/kg, n = 6
ASSAY READOUT: half-life (min)
Give the quantity in min, number only.

**Q:** Value lookup for half-life; key = COc1cc(OC)cc(-c2nc[nH]c2-c2ccc(OC)c(OP(=O)([O-])[O-])c2)c1.[Na+].[Na+] [C118P]
**A:** 12.6

###

TEST NAME: PK in rats after i.v. C118P
Format: in vivo, SD rats
CONDITION SET: both sexes, SD, rat, in vivo; rats, plasma, i.v. C118P 50 mg/kg, n = 6; read-out: C2min (C30s for Rat)
Procedure: The SD rats were supplied by the medical animal experiment center of Chinese People’s Liberation Army Nanjing military region. Twenty-four rats (210–300 g) with half males and half females were divided randomly into four groups. C118P was dissolved in saline to achieve different concentrations for intravenous administration. […] Plasma was prepared by centrifugation at 8000 rpm for 5 min, and the plasma samples were then prepared and determined by the method described above. […]
ASSAY READOUT: concentration at 30 s (µg/mL)
Give the quantity in µg/mL, number only.

**Q:** Value lookup for concentration at 30 s; key = COc1cc(OC)cc(-c2nc[nH]c2-c2ccc(OC)c(OP(=O)([O-])[O-])c2)c1.[Na+].[Na+] [C118P]
**A:** 373

###

TEST NAME: PK in tumor-bearing nude mice after i.v. C118P
Assay type: in vivo, nude mice (BALB/cA) implanted with NCI-H460 tumor
CONDITION SET: BALB/cA nude, mouse, intravenous; nude mice, plasma, i.v. C118P 75 mg/kg, n = 4; read-out: C2min
ASSAY READOUT: concentration at 2 min (ng/mL)
Give the quantity in ng/mL, number only.

**Q:** Value lookup for concentration at 2 min; key = COc1cc(OC)cc(-c2nc[nH]c2-c2ccc(OC)c(O)c2)c1
**A:** 42500

###

TEST NAME: PK in rats after i.v. C118P
Assay type: in vivo, SD rats
CONDITION SET: both sexes, SD, rat, in vivo, iv; rats, plasma, i.v. C118P 10 mg/kg, n = 6; read-out: CL (converted)
ASSAY READOUT: clearance (mL/min/kg)
Give the quantity in mL/min/kg, number only.

**Q:** Value lookup for clearance; key = COc1cc(OC)cc(-c2nc[nH]c2-c2ccc(OC)c(OP(=O)([O-])[O-])c2)c1.[Na+].[Na+] [C118P]
**A:** 16.4

###

TEST NAME: PK in rats after i.v. C118P
Assay type: in vivo, SD rats
CONDITION SET: both sexes, SD, rat, in vivo, iv; rats, plasma, i.v. C118P 20 mg/kg, n = 6; read-out: CL (converted)
ASSAY READOUT: clearance (mL/min/kg)
Give the quantity in mL/min/kg, number only.

**Q:** Value lookup for clearance; key = COc1cc(OC)cc(-c2nc[nH]c2-c2ccc(OC)c(OP(=O)([O-])[O-])c2)c1.[Na+].[Na+] [C118P]
**A:** 18.5

Values from paper PMC6278385
